# SYSTEM_UNDER_TEST: POP (prolyloligopeptidase) (Homo sapiens, UniProt P48147)
# Sequence (P48147 whole entry): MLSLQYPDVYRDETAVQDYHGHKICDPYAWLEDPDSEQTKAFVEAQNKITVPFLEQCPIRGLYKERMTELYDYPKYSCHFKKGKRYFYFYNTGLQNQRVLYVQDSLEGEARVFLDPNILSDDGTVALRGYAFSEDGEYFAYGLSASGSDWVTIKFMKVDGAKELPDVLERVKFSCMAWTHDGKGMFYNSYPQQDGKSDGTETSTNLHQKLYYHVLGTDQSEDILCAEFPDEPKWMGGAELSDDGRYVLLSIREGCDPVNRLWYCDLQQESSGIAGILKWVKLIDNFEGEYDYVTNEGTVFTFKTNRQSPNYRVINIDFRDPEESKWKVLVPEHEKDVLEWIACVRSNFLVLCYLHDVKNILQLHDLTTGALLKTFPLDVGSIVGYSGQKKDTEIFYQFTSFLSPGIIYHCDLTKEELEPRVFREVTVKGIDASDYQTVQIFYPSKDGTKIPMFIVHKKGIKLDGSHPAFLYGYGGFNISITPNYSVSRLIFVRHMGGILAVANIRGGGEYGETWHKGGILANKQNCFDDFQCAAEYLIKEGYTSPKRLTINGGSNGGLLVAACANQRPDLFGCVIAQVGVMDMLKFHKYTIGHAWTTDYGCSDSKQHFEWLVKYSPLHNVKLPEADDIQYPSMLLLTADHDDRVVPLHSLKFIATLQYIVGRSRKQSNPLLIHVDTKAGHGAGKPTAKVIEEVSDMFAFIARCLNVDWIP
pIC50: −log10 of the molar value.
Hi there, I'd appreciate the recorded pIC50 for every entry that follows.

Sample records with pIC50:
COc1cc(CNCCc2ccc(O)cc2)ccc1OCc1ccccc1: 3.73
C=CCOc1ccc(CCN(CC=C)Cc2ccc(OC)c(OCc3ccccc3)c2)cc1: < 4.10
C=CCN(CCc1ccc(O)cc1)Cc1ccc(OC)c(OCc2ccccc2)c1: < 4.10
C=CCN(CCc1ccc(O)cc1)Cc1ccc(OCc2ccccc2)c(OC)c1: < 3.70

Proceed to the following item.
Endpoint output: pIC50 of COc1ccc(CNCCc2ccc(O)cc2)cc1OCc1ccccc1 . Value?
< 4.10

---

# SYSTEM_UNDER_TEST: human plasma BChE (Homo sapiens)
# Construct: was used as a source of BChE and was prepared from heparinized human blood; from tissue; host or cells: human plasma from heparinized human blood
# EXPERIMENT_NOTES: biochemical
# Format: biochemical
# CONDITION_CONTEXT: ratio hAChE IC50/hBuChE IC50
MEASUREMENT_KIND: SI for hBuChE

Batch request: SI for hBuChE for each of the following molecules.
1. COc1cc(CNCCc2ccccc2)ccc1OCc1ccccc1
2. COc1ccc(CNCCc2ccccc2)cc1OCc1ccccc1
3. COc1ccc(CNCCc2ccc(O)cc2)cc1OCc1ccccc1
4. C=CCN(CCc1ccc(OC)cc1)Cc1ccc(OCc2ccccc2)c(OC)c1
5. C=CCN(CCc1ccc(O)cc1)Cc1ccc(OCc2ccccc2)c(OC)c1

[">78", ">90", ">348", ">37", ">163"]

I'm hoping you can list SI for hBuChE for every molecule here, please.
1. CCOc1cc(CN(CCc2ccccc2)Cc2ccccc2)ccc1OC
2. C=CCN(CCc1ccccc1)Cc1ccc(OC)c(OCC)c1
3. C=CCN(CCc1ccc(OC)cc1)Cc1ccc(OC)c(OCc2ccccc2)c1
4. COc1ccc(CCNCc2ccc(OCc3ccccc3)c(OC)c2)cc1

1. >145
2. >22
3. 98
4. >41

Report SI for hBuChE for each item below.
1. COc1cc(CNCCc2ccc(O)cc2)ccc1OCc1ccccc1
2. C=CCN(CCc1ccc(O)cc1)Cc1ccc(OC)c(OCc2ccccc2)c1
3. CCOc1cc(CNCCc2ccccc2)ccc1OC

1. >277
2. >394
3. >2

---

# SYSTEM_UNDER_TEST: human plasma BChE (Homo sapiens, UniProt P06276)
# Construct: was used as a source of BChE and was prepared from heparinized human blood; from tissue; host or cells: human plasma from heparinized human blood
# Sequence (P06276 29-602): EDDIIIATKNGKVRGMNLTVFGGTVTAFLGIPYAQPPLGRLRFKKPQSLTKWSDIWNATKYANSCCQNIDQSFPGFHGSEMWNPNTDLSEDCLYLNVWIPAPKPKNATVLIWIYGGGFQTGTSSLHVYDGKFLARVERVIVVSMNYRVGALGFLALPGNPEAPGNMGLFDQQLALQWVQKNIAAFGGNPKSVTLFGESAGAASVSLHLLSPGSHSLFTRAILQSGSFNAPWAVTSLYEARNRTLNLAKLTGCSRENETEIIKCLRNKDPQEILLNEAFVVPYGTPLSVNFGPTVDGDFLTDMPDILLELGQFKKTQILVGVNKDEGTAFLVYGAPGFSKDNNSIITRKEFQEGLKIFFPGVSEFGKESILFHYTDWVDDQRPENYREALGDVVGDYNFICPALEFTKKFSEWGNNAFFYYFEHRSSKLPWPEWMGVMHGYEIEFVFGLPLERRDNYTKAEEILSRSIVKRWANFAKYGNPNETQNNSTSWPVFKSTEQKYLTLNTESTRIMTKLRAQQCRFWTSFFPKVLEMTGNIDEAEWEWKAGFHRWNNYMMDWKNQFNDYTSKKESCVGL
# EXPERIMENT_NOTES: biochemical
# Assay type: biochemical
# CONDITION_CONTEXT: ratio hAChE IC50/hBuChE IC50
Answer each item with its documented SI for hBuChE.

Give measured SI for hBuChE for every item shown.
1. CCOc1cc(CNCCc2ccc(O)cc2)ccc1OC [Compound 15]
2. C=CCN(CCc1ccccc1)Cc1ccc(OCc2ccccc2)c(OC)c1 [Compound 9]
3. C=CCN(CCc1ccccc1)Cc1ccc(OC)c(OCc2ccccc2)c1 [Compound 10]
4. C=CCN(CCc1ccc(O)cc1)Cc1ccc(OC)c(OCC)c1 [Compound 16]
5. COc1ccc(CCNCc2ccc(OC)c(OCc3ccccc3)c2)cc1 [Compound 12]

[">6", ">19", 18, ">82", ">89"]

---

Assignment: determine reported inhibition at 100 µM for the given molecules.
# SYSTEM_UNDER_TEST: human recombinant AChE (Homo sapiens, UniProt P22303)
# Sequence (P22303 32-614): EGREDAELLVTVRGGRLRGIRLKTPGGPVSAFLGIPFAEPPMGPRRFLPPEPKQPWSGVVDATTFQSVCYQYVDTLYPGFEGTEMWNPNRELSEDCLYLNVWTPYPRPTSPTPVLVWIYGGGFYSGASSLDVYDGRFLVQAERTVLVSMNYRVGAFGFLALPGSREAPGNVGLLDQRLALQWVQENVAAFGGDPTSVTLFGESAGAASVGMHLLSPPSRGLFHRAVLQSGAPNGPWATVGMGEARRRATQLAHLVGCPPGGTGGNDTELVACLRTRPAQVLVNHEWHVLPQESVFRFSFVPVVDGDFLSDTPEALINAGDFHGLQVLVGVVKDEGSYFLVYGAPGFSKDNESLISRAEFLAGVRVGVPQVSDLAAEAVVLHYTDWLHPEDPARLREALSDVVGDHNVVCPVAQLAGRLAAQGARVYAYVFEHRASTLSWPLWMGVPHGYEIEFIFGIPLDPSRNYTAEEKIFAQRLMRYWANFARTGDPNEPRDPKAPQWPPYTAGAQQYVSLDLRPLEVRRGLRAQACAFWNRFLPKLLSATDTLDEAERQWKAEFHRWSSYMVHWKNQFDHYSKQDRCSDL
# EXPERIMENT_NOTES: biochemical
# Assay type: biochemical
# CONDITION_CONTEXT: tested at 100 µM compound concentration; read-out: %Inhibition hAChE ± SEM
Answer format reminder: number followed by unit.

Solved cases (5 shown):
C=CCN(CCc1ccc(OC)cc1)Cc1ccc(OCc2ccccc2)c(OC)c1: 32.7%
CCOc1cc(CNCCc2ccc(O)cc2)ccc1OC: 25.8%
COc1ccc(CNCCc2ccccc2)cc1OCc1ccccc1: 12.6%
C=CCN(CCc1ccc(OC)cc1)Cc1ccc(OC)c(OCc2ccccc2)c1: 60.9%
COc1cc(CNCCc2ccc(O)cc2)ccc1OCc1ccccc1: 30.4%

Please give inhibition at 100 µM for each item listed below.
1. C=CCN(CCc1ccccc1)Cc1ccc(OC)c(OCC)c1
2. CCOc1cc(CN(CCc2ccccc2)Cc2ccccc2)ccc1OC
3. COc1cc(CNCCc2ccccc2)ccc1OCc1ccccc1
4. C=CCN(CCc1ccc(O)cc1)Cc1ccc(OC)c(OCC)c1
5. COc1ccc(CNCCc2ccc(O)cc2)cc1OCc1ccccc1
6. C=CCOc1ccc(CCN(CC=C)Cc2ccc(OC)c(OCc3ccccc3)c2)cc1

1: 5.9%; 2: 49.5%; 3: 23.4%; 4: 28.3%; 5: 35.8%; 6: 10.1%

---

# SYSTEM_UNDER_TEST: MAO-B (Homo sapiens, UniProt P27338)
# Sequence (P27338 1-520): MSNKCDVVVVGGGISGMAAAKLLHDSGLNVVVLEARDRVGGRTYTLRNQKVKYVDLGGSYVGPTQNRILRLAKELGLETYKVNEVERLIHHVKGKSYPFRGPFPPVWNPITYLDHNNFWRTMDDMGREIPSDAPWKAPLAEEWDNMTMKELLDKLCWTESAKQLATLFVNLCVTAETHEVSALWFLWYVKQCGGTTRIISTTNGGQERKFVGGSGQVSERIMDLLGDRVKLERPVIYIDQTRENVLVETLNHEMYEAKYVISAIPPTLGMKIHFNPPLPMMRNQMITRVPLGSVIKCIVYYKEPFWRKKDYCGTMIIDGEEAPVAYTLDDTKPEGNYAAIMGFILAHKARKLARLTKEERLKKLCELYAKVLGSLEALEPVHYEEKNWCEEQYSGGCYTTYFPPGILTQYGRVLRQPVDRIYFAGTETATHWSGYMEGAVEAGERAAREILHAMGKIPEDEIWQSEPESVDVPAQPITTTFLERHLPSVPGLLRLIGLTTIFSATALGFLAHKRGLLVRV
MEASUREMENT_KIND: IC50

Requested field: IC50. Item: C=CCOc1ccc(CCN(CC=C)Cc2ccc(OC)c(OCc3ccccc3)c2)cc1
> 10 µM

---

# SYSTEM_UNDER_TEST: human plasma BChE (Homo sapiens, UniProt P06276)
# Construct: was used as a source of BChE and was prepared from heparinized human blood; from tissue; host or cells: human plasma from heparinized human blood
# EXPERIMENT_NOTES: biochemical
# Assay type: biochemical
# CONDITION_CONTEXT: mean ± SEM of three independent measurements, each in triplicate; read-out: IC50, hBuChE ± SEM
MEASUREMENT_KIND: pIC50
Give bare numbers, as −log10 of the molar value.

Worked examples, 4 compounds total:
COc1ccc(CCNCc2ccc(OCc3ccccc3)c(OC)c2)cc1: 5.62
C=CCN(CCc1ccccc1)Cc1ccc(OC)c(OCc2ccccc2)c1: 5.93
C=CCN(CCc1ccc(OC)cc1)Cc1ccc(OC)c(OCc2ccccc2)c1: 6.42
COc1ccc(CCNCc2ccc(OC)c(OCc3ccccc3)c2)cc1: 5.95

Any idea what its pIC50 is? The compound is C=CCN(CCc1ccc(O)cc1)Cc1ccc(OCc2ccccc2)c(OC)c1
6.21

---

# SYSTEM_UNDER_TEST: human plasma BChE (Homo sapiens)
# Construct: was used as a source of BChE and was prepared from heparinized human blood; from tissue; host or cells: human plasma from heparinized human blood
# EXPERIMENT_NOTES: biochemical
# Format: biochemical
# CONDITION_CONTEXT: tested at 100 µM compound concentration; read-out: % Inhibition hBuChE ± SEM
I'd appreciate it if you could supply inhibition at 100 µM values for the items below.
Give bare numbers, in %.

The cases that follow already have their inhibition at 100 µM on record.
C=CCN(CCc1ccccc1)Cc1ccc(OC)c(OCc2ccccc2)c1: 92
C=CCN(CCc1ccc(OC)cc1)Cc1ccc(OCc2ccccc2)c(OC)c1: 90.9
COc1ccc(CCNCc2ccc(OC)c(OCc3ccccc3)c2)cc1: 94.6
COc1cc(CNCCc2ccc(O)cc2)ccc1OCc1ccccc1: 98.7

Query: inhibition at 100 µM; subject: C=CCN(CCc1ccccc1)Cc1ccc(OC)c(OCC)c1
80.2
